// data source = paper PMC6943434

Listed next: entries and their corresponding SI: selectivity index.
Tested on: FaDu (head and neck squamous carcinoma cell line)
Experiment: MTT cell viability assay, FaDu
Type: cell-based, human
Details: SI = IC50 (MCF 10A)/IC50 (FaDu)
measured property: SI: selectivity index

# molecule, measured property, prefix operator, assay value
data = [
    ("O=C(NCCCCCCCCCCNC(=O)c1cc2ccccc2s1)c1cc2ccccc2s1 [Compound 22e]", "SI: selectivity index", ">", 1000),
    ("O=C(/C=C/c1ccccc1)NCCCCCCCCCCNC(=O)/C=C/c1ccccc1", "SI: selectivity index", ">", 1851.85),
    ("Cc1nc(C)c(C(=O)NCCCCCCCCNC(=O)c2nc(C)c(C)nc2C)nc1C", "SI: selectivity index", "=", 24.45),
    ("O=C(NCCCCCCCCCCNC(=O)c1ccc2ccccc2c1)c1ccc2ccccc2c1 [Compound 12e]", "SI: selectivity index", ">", 75.19),
    ("O=C(NCCCCCCCCCCNC(=O)c1ccco1)c1ccco1 [Compound 14e]", "SI: selectivity index", "=", 3.13),
    ("O=C(NCCCCCCCCCCNC(=O)c1cccnc1)c1cccnc1 [Compound 10e, N,N′-(Decane-1,10-Diyl)Dinicotinamide]", "SI: selectivity index", "=", 154.40),
]
